The measured values listed here are drawn from patent US20260217813A1.

Molecular target: T1, IL-12 (Human IL12 (His Tag)), Sino Biological Cat. No. CT-050-H08H-20 (human, UniProt P29460 23-328; P29459 23-219)
T1 construct: Bought His-tagged p35/p40 heterodimer
T1 sequence (looked up) 1: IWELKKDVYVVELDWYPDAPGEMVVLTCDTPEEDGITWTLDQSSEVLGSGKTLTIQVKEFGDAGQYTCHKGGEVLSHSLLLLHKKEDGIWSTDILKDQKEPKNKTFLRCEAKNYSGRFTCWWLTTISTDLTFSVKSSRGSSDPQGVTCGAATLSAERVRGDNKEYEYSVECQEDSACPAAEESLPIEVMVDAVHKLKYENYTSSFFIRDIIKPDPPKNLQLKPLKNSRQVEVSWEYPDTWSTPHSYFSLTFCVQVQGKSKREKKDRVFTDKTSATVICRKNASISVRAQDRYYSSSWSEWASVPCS
T1 sequence (looked up) 2: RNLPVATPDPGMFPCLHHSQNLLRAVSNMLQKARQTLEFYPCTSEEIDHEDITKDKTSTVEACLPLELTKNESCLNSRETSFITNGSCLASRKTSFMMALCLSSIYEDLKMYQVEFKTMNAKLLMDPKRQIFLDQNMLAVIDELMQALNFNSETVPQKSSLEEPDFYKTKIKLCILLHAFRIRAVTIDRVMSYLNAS
Test: FACS competition, IL-12-His 20 nM on 293T-IL-12RB1&IL-23R cells, antibody 0.01 µg/mL
// reported MFI per item
Answer using only a numeral; do not append any unit.

// below: answered binders
H5L9 (antibody, human IgG1, kappa, V domains shown, Humanized anti-human IL-12/IL-23 p40 antibody; IgG1 (P01857) / kappa (P01834) constant regions) VH: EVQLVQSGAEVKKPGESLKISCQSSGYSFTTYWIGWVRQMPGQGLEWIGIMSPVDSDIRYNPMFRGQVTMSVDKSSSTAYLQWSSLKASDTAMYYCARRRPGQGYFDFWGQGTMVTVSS VL: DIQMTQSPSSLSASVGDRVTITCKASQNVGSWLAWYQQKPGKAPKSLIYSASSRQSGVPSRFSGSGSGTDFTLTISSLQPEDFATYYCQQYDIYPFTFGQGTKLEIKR : 169
H5L11 (antibody, human IgG1, kappa, V domains shown, IgG1/kappa) VH: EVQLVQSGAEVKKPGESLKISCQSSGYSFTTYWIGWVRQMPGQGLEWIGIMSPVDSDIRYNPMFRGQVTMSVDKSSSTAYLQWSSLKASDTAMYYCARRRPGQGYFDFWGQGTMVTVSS VL: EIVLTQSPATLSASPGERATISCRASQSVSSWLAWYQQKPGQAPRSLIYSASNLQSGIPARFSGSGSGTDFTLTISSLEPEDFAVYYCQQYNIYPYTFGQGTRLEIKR : 166

Shift focus to the following entry.
// MFI value for H5L14 (antibody, human IgG1, kappa, V domains shown, IgG1/kappa) VH: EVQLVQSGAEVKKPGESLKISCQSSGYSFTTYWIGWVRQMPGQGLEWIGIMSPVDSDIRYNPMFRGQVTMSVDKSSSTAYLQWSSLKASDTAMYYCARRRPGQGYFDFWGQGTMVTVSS VL: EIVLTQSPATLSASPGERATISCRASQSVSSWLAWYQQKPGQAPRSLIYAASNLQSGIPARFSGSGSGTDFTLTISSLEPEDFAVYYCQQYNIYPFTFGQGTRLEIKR : 149
